- System: HOP-62
- PROTOCOL_NOTES: NCI tumour cell line growth inhibition, 48 h
Active and inactive are the calls of the source. No stated cut-off is given here; in the data, active = GI50 up to about 1.1 µM and inactive = higher.
Hi there, I'd appreciate the recorded GI50 for every entry that follows.

Input line: What value of measured GI50 is listed for `CCN=C=NCCCN(C)C` ?
Output line: > 100 µM (inactive)

Input line: Return reported GI50; argument: `CCOC(=O)CCc1c(C)c2ccc(O)cc2oc1=O`
Output line: > 100 µM (inactive)

Input line: Item under review: `O=C(O)c1ccccc1NC(=S)c1ccccc1` . Reported GI50?
Output line: 50.4 µM (inactive)

Input line: # lookup: GI50 of `COc1ccc2c(c1)CN([C@@H](C)[C@H]1CC[C@H]3[C@@H]4CC[C@H]5C[C@@H](O)CC[C@]5(C)[C@H]4CC[C@]13C)CO2`
Output line: 2 µM (inactive)

Input line: Give its GI50 value. Item: `COc1ccc(Cn2c3ccc([N+](=O)[O-])cc3c(=O)n2Cc2ccccn2)cc1`
Output line: > 100 µM (inactive)

====

- Test system: DLD-1
- PROTOCOL_NOTES: NCI tumour cell line growth inhibition, 48 h
Activity calls are given as the source filed them. Cut-off read from the data, not from the text of the source: active = GI50 up to about 1.1 µM and inactive = higher.
Task for the reader: assign each of the following compounds its reported GI50.

Input line: Given the entry O=c1[nH]c(=O)n(C2CC(O)C(CO)O2)cc1C#Cc1cc(C(F)(F)F)cc(C(F)(F)F)c1 (centres undefined) , what GI50 was observed with DLD-1?
Output line: > 29.4 µM (inactive)

Input line: Field: GI50 (DLD-1). Entry: `COc1cccc(N2C(=O)/C(=C/c3ccc(N(CCC#N)CCC#N)cc3)N=C2c2cc([N+](=O)[O-])ccc2Cl)c1`
Output line: 60 µM (inactive)

Input line: Give recorded GI50 with DLD-1 for the following compound: CC(C)C(Sc1nc(-c2ccccc2)c(-c2ccccc2)[nH]1)C(=O)NNC(=S)Nc1ccccc1 (centres undefined)
Output line: 25.8 µM (inactive)

Input line: What value of GI50 on DLD-1 does C/C(=N\NC(=S)NC(CCC(=O)O)C(=O)O)c1ccccn1 (centres undefined) have?
Output line: > 100 µM (inactive)

Input line: Give recorded GI50 with DLD-1 for the following compound: `CC(=O)CC(=O)Nc1ccccc1C(F)(F)F`
Output line: > 100 µM (inactive)

Input line: For the record `Cc1c(C(=O)C/C(=N/NC(=O)C[N+](C)(C)C)C(=O)Nc2ccc(Cl)cc2)[n+]([O-])c2ccccc2[n+]1[O-]` , what value of GI50 is listed for DLD-1?
Output line: > 100 µM (inactive)

Input line: Notebook entry, DLD-1 assay: GI50 of `Oc1ccc(O)c(-n2cccn2)c1-n1cccn1` = ?
Output line: > 100 µM (inactive)

Input line: Lab note: need GI50 for CSc1nc2c(nc(N)n2C2OC(CO)C(O)C(O)C2O)c(=O)[nH]1 (centres undefined) on DLD-1, anyone have it?
Output line: > 100 µM (inactive)

Input line: Any idea what GI50 came out for O=C(O)CCC(NC(=O)c1ccc(Nc2nc3ccccc3nc2-c2cccs2)cc1)C(=O)O (centres undefined) on DLD-1?
Output line: > 100 µM (inactive)

====

- Tested on: IGROV-1
- PROTOCOL_NOTES: NCI tumour cell line growth inhibition, 48 h
Activity calls are given as the source filed them. Cut-off read from the data, not from the text of the source: active = GI50 up to about 1.1 µM and inactive = higher.
ENDPOINT: GI50

Input line: Find GI50 (IGROV-1) for the entry `CCn1cc(C(=O)O)c(=O)c2cc(F)c(N3CCNCC3)nc21`
Output line: > 100 µM (inactive)

Input line: # get_value(readout= GI50, system= IGROV-1) for O=S(=O)(c1ccccc1)N1N=C2c3ccccc3CCC[C@H]2C1c1ccccc1 (some centres undefined)
Output line: > 100 µM (inactive)

Input line: Please tell me: GI50 of Fc1ccc(C(OCCN2CCC3CCC(C2)N3C/C=C/c2ccco2)c2ccc(F)cc2)cc1 (centres undefined) , system IGROV-1?
Output line: 6.5 µM (inactive)

Input line: Give recorded GI50 with IGROV-1 for the following molecule: Nc1ccccc1SC(/C=C/NNC1=NN=C(c2ccccc2)C(c2ccccc2)N1)c1ccccc1 (centres undefined)
Output line: 15.4 µM (inactive)

Input line: Provide the documented GI50 with IGROV-1 as the system for `COc1cc(/C=C2\S/C(=N/Nc3nc(-c4ccc(Br)cc4)cs3)NC2=O)cc(OC)c1OC`
Output line: 12 µM (inactive)

Input line: Item: `CS(=O)(=O)c1ccc(-c2cc(-c3ccc(S(C)(=O)=O)cc3)[n+](-c3cc(-c4ccc(S(C)(=O)=O)cc4)c([O-])c(-c4ccc(S(C)(=O)=O)cc4)c3)c(-c3ccc(S(C)(=O)=O)cc3)c2)cc1` Test system: IGROV-1 Read-out: GI50 Value: ?
Output line: > 100 µM (inactive)

Input line: Please provide the recorded GI50 for `CN(C)c1nc(N)c(C#N)c(C#N)c1C#N` , tested on IGROV-1.
Output line: > 6 µM (inactive)

Input line: Lab request: please report GI50 under test system IGROV-1 for `CCOC(=O)c1c(NS(=O)(=O)c2ccccc2)sc2c1CCCC2`
Output line: 54.8 µM (inactive)

Input line: Item: N#Cc1nc(CCC(C(=O)O)N2C(=O)c3ccccc3C2=O)oc1N (centres undefined) Test system: IGROV-1 Read-out: GI50 Value: ?
Output line: > 100 µM (inactive)
